Data origin, for the record: patent US20230348616A1

- tested-system: T1, HLA-A2 / homologous peptide DOLPP1 complex on T2 cells (human)
- T1 construct: whole, on cells; also called T2 cells supplemented with homologous peptide DOLPP1
- protocol-text: flow cytometry on peptide-pulsed T2 cells, scFv 100 nM;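 note: scFv binding read as gMFI and normalized to the level of HLA/peptide complex displayed on T2 cells, with homologous 9-mer peptides used to probe specificity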
measured-property: standardized gMFI
Give a plain numeric answer without units written out.

Quick one: standardized gMFI for NYA-2060 (scFv, also called NYA-2060 tag adduct) scFv: GEVQLVESGGGLVQPGGSLRLSCAASGFSIRSYDIHWVRQAPGKGLEWVATISYDGSQKYYADSVKGRFTISRDESKNTLYLQMNSLRAEDTAVYHCARGSSGHYEAFDIWGQGTLVTVSSGGGGSGGGGSGGGGSQSVLTQPPSVSAAPGQKVTISCSGSSSNIGNWYVSWYQQLPGTAPKLLIYDNNKRPSGIPDRFSGSKSGTSATLGITGLQTGDEADYYCGTWDSSLSAPWVFGGGTKVTVLGAAAGAGGDYKDDDDKGAAAHHHHHH ?
0.42

And the next one, NYA-2027 (scFv) scFv: GEVQLVESGGGVVQPGRSLTPSCSASGFSIRSYDIHWVRQAPGKGLEWVATISYDGSQKYFADSVKGRFTIFRDESENMVYLQMSGLRVEDTAVYHCARGSSGHYEAFDIWGQGTMVTVSSGGGGSGGGGSGGGGSQSVLTQPPSVSAAPGQKVTISCSGSSSNIGNNYVSWYQQLPGTAPKLLIYDNNKRPSGIPDRFSGSKSGTSATLGITGLQTGDEADYYCGSWDSSLSAPWVFGGGTKVTVLGAAAGAGGDYKDDDDKGAAAHHHHHH ?
0.39
